Values compiled from patent US11013235B2.

This section presents molecules with their documented Titers of the bacterium values.
- Tested on: Candidatus 'Liberibacter asiaticus'
- Type: in vivo
- Run parameters: 1 μM, spraying every 15 days, 12 months after treatment, Citrus sinensis with HLB
Answer with the number, then the unit.

Molecule	Titers of the bacterium
Cc1c(CCC(=O)NCC(O)CO)c(=O)oc2cc3occ(C4CCCCC4)c3cc12 (stereo not drawn) [IJ]	18 copies per reaction

Ask: Quote Titers of the bacterium with test system Candidatus 'Liberibacter asiaticus' for O=C(c1ccc(OC2CCN(CC(O)CO)CC2)cc1)N1CCC(c2ccccc2)C1 (stereo not drawn) [IVC]
Reply: 0 copies per reaction

Ask: Fill in: Titers of the bacterium on Candidatus 'Liberibacter asiaticus', entry Cc1nc(N2CCN(C)CC2)ncc1C(=O)N1CC2CC(O)C(O)CC2C1 (stereo not drawn) [IIIB]
Reply: 0 copies per reaction

====

- System: Candidatus 'Liberibacter asiaticus'
- Format: in vivo
- Run parameters: 0.001 μM, spraying every 15 days, 12 months after treatment, Citrus sinensis with HLB
The following compounds are listed with their measured Titers of the bacterium values.
Please state the figure in copies per reaction; there is no need to write the unit.

Compound	Target or system	Quantity kind	Unit spec	Numeric readout
Cc1c2c(oc(=O)c1CC(=O)NCC(O)CO)C=CC1C=COC21 (stereo not drawn)	Candidatus 'Liberibacter asiaticus'	Titers of the bacterium	copies per reaction	524
O=C(c1ccc(OC2CCN(CC(O)CO)CC2)cc1)N1CCC(n2cccc2)C1 (stereo not drawn)	Candidatus 'Liberibacter asiaticus'	Titers of the bacterium	copies per reaction	578
O=C(CCc1cc2cc3c(C4CCCCC4)coc3cc2oc1=O)NCC(O)CO (stereo not drawn)	Candidatus 'Liberibacter asiaticus'	Titers of the bacterium	copies per reaction	432
Cc1nc(N2CCN(C3CCCCC3)CC2)ncc1C(=O)N1CC2CC(O)C(O)CC2C1 (stereo not drawn)	Candidatus 'Liberibacter asiaticus'	Titers of the bacterium	copies per reaction	658

Ask: Given O=C(c1ccc(OC2CCN(CC(O)CO)CC2)cc1)N1CCC(C2CCCC2)C1 (stereo not drawn) , respond with its Titers of the bacterium.
Reply: 658

Ask: Complete the entry with Titers of the bacterium for CC(O)C(O)CN1CCC(Oc2ccc(C(=O)N3CCC(n4cccc4)C3)cc2)CC1 (stereo not drawn)
Reply: 635

Ask: Specify Titers of the bacterium for CNC(=O)c1ccc2c(c1)N(C)C(CC(=O)NC(CO)CO)CO2 (stereo not drawn) and stop.
Reply: 598

Ask: Report measured Titers of the bacterium; entry is Cc1c2c(oc(=O)c1CC(=O)NCC(O)CO)C=CC1C(c3ccccc3)=COC21 (stereo not drawn)
Reply: 456

Ask: Provide measured Titers of the bacterium value, entry: CC(O)C(O)CN1CCC(Oc2ccc(C(=O)N3CCC(C4CCCC4)C3)cc2)CC1 (stereo not drawn)
Reply: 756

====

- System: Candidatus 'Liberibacter asiaticus'
- Assay type: in vivo
- Run parameters: 0.001 μM, spraying every 15 days, 12 months after treatment, Citrus sinensis with HLB
Mark true (1) only for Titers of the bacterium values smaller than 500 copies per reaction; exact matches and larger values are false (0).

// below: answered compounds
Compound	Assigned category
Cc1c(CCC(=O)NCC(O)CO)c(=O)oc2cc3occc3cc12 (stereo not drawn) [IM]	false (0)
O=C(c1cnc(N2CCNCC2)nc1)N1CC2CC(O)C(O)CC2C1 (stereo not drawn) [IIII]	true (1)

Ask: Would you kindly verify if Titers of the bacterium of Cc1c(CCC(=O)NCC(O)CO)c(=O)oc2cc3occ(C4CCCC4)c3cc12 (stereo not drawn) [IK] is strictly less than 500 copies per reaction?
Reply: true (1)

Ask: Decide: Titers of the bacterium of O=C(c1cnc(N2CCN(n3cccc3)CC2)nc1)N1CC2CC(O)C(O)CC2C1 (stereo not drawn) [IIIK] strictly below 500 copies per reaction?
Reply: false (0)

Ask: I'd appreciate it if you could check whether Cc1nc(N2CCN(C)CC2)ncc1C(=O)N1CC2CC(O)C(O)CC2C1 (stereo not drawn) [IIIB] has Titers of the bacterium smaller than 500 copies per reaction.
Reply: true (1)

Ask: Regarding Cc1c2c(oc(=O)c1CC(=O)NCC(O)CO)C=CC1C(c3ccc4ccccc4c3)=COC21 (stereo not drawn) [IIL] , kindly confirm whether its Titers of the bacterium is beneath 500 copies per reaction.
Reply: false (0)

Ask: Item CN1CCN(c2ncc(C(=O)N3CC4CC(O)C(O)CC4C3)cn2)CC1 (stereo not drawn) [IIIA] : Titers of the bacterium beneath 500 copies per reaction, strictly?
Reply: true (1)

Ask: Item Cc1c(CCC(=O)NCC(O)CO)c(=O)oc2cc3occ(-c4ccccc4)c3cc12 (stereo not drawn) [II] : Titers of the bacterium beneath 500 copies per reaction, strictly?
Reply: false (0)

Ask: I'd appreciate it if you could check whether O=C(Cc1cc2c(oc1=O)C=CC1C(c3ccccc3)=COC21)NCC(O)CO (stereo not drawn) [IIB] has Titers of the bacterium smaller than 500 copies per reaction.
Reply: true (1)

Ask: Dear colleague, could you confirm whether Titers of the bacterium of CC1=COC2c3cc(CC(=O)NCC(O)CO)c(=O)oc3C=CC12 (stereo not drawn) [IIA] falls below 500 copies per reaction? Thanks.
Reply: false (0)

Ask: Item O=C(c1ccc(OC2CCN(CC(O)CO)CC2)cc1)N1CCC(C2CCCCC2)C1 (stereo not drawn) [IVE] : Titers of the bacterium beneath 500 copies per reaction, strictly?
Reply: false (0)

Ask: Dear colleague, could you confirm whether Titers of the bacterium of Cc1coc2cc3oc(=O)c(CCC(=O)NCC(O)CO)cc3cc12 (stereo not drawn) [IA] falls below 500 copies per reaction? Thanks.
Reply: false (0)

====

- Test system: Candidatus 'Liberibacter asiaticus'
- Format: in vivo
- Run parameters: 0.001 μM, spraying every 15 days, 12 months after treatment, Citrus sinensis with HLB
Cut-off 600 copies per reaction on Titers of the bacterium, inclusive. At or above means Met; below means Not met.

As a guide, the following entries are already answered.
Molecule	Assigned category
Cc1c(CCC(=O)NCC(O)CO)c(=O)oc2cc3occ(-n4cccc4)c3cc12 (centres unmarked) [IN]	Not met
O=C(c1cnc(N2CCN(C3CCCCC3)CC2)nc1)N1CC2CC(O)C(O)CC2C1 (centres unmarked) [IIIE]	Met
O=C(Cc1cc2c(oc1=O)C=CC1C=COC21)NCC(O)CO (centres unmarked) [IIF]	Met

Ask: Is Titers of the bacterium for O=C(CCc1cc2cc3ccoc3cc2oc1=O)NCC(O)CO (centres unmarked) [IF] at or above 600 copies per reaction?
Reply: Met

Ask: Is the recorded value of Titers of the bacterium equal to or greater than 600 copies per reaction for this molecule? O=C(Cc1cc2c(oc1=O)C=CC1C(C3CCCCC3)=COC21)NCC(O)CO (centres unmarked) [IIC]
Reply: Not met

Ask: Check if Titers of the bacterium >= 600 copies per reaction (inclusive). Item: O=C(CC1COc2ccc(C(=O)Nn3cccc3)cc2N1)NC(CO)CO (centres unmarked) [VK]
Reply: Not met

Ask: hey, is Titers of the bacterium for this one >= 600 copies per reaction? CC(O)C(O)CN1CCC(Oc2ccc(C(=O)N3CCCC3)cc2)CC1 (centres unmarked) [IVJ]
Reply: Not met

Ask: Exam item: decide whether the reported Titers of the bacterium for CC(O)C(O)CN1CCC(Oc2ccc(C(=O)N3CCC(C4CCCCC4)C3)cc2)CC1 (centres unmarked) [IVF] is at least 600 copies per reaction.
Reply: Met

Ask: Decide: is the reported value of Titers of the bacterium for O=C(Cc1cc2c(oc1=O)C=CC1C(n3cccc3)=COC21)NCC(O)CO (centres unmarked) [IIG] equal to or greater than 600 copies per reaction?
Reply: Met

Ask: Record CN1c2cc(C(=O)NC3CCCC3)ccc2OCC1CC(=O)NC(CO)CO (centres unmarked) [VH] ; criterion: Titers of the bacterium no lower than 600 copies per reaction. Met?
Reply: Met

Ask: Does Titers of the bacterium meet or surpass 600 copies per reaction for O=C(Cc1cc2c(oc1=O)C=CC1C(c3ccc4ccccc4c3)=COC21)NCC(O)CO (centres unmarked) [IIE] ?
Reply: Met

Ask: Check the entry Cc1nc(N2CCN(C3CCCC3)CC2)ncc1C(=O)N1CC2CC(O)C(O)CC2C1 (centres unmarked) [IIIH] : does Titers of the bacterium equal or exceed 600 copies per reaction?
Reply: Not met

Ask: Hi, just wondering whether O=C(CCc1cc2cc3c(C4CCCC4)coc3cc2oc1=O)NCC(O)CO (centres unmarked) [ID] shows Titers of the bacterium of 600 copies per reaction or higher.
Reply: Not met

Ask: Evaluate Cc1c2c(oc(=O)c1CC(=O)NCC(O)CO)C=CC1C(C3CCCC3)=COC21 (centres unmarked) [IIK] : Titers of the bacterium at minimum 600 copies per reaction?
Reply: Not met

====

- System: Candidatus 'Liberibacter asiaticus'
- Type: in vivo
- Run parameters: 0.001 μM, spraying every 15 days, 12 months after treatment, Citrus sinensis with HLB
Mark Yes for Titers of the bacterium under 500 copies per reaction, No if at or over.

Molecule	Assigned category
Cc1coc2cc3oc(=O)c(CCC(=O)NCC(O)CO)c(C)c3cc12 (centres unmarked)	No
CC1CCN(C(=O)c2ccc(OC3CCN(CC(O)C(C)O)CC3)cc2)C1 (centres unmarked)	Yes
Cc1c(CCC(=O)NCC(O)CO)c(=O)oc2cc3occ(C4CCCCC4)c3cc12 (centres unmarked)	Yes
Cc1nc(N2CCN(c3ccccc3)CC2)ncc1C(=O)N1CC2CC(O)C(O)CC2C1 (centres unmarked)	No
Cc1nc(N2CCN(n3cccc3)CC2)ncc1C(=O)N1CC2CC(O)C(O)CC2C1 (centres unmarked)	No
O=C(CC1COc2ccc(C(=O)NC3CCCC3)cc2N1)NC(CO)CO (centres unmarked)	No
CN1c2cc(C(=O)NC3CCCCC3)ccc2OCC1CC(=O)NC(CO)CO (centres unmarked)	No
O=C(CC1COc2ccc(C(=O)NC3CCCCC3)cc2N1)NC(CO)CO (centres unmarked)	No
CC1=COC2c3c(oc(=O)c(CC(=O)NCC(O)CO)c3C)C=CC12 (centres unmarked)	No
O=C(c1ccc(OC2CCN(CC(O)CO)CC2)cc1)N1CCC(c2ccccc2)C1 (centres unmarked)	Yes

Ask: Bench note: check whether CN1c2cc(C(N)=O)ccc2OCC1CC(=O)NC(CO)CO (centres unmarked) shows Titers of the bacterium below 500 copies per reaction
Reply: Yes

Ask: Strictly below 500 copies per reaction: is that where Titers of the bacterium of O=C(CCc1cc2cc3c(-c4ccc5ccccc5c4)coc3cc2oc1=O)NCC(O)CO (centres unmarked) sits?
Reply: No

Ask: Here's an entry: O=C(c1cnc(N2CCN(c3ccccc3)CC2)nc1)N1CC2CC(O)C(O)CC2C1 (centres unmarked) . Is its Titers of the bacterium below 500 copies per reaction?
Reply: No

Ask: Does the reported Titers of the bacterium of the following molecule sit strictly below 500 copies per reaction? Cc1c2c(oc(=O)c1CC(=O)NCC(O)CO)C=CC1C(C3CCCCC3)=COC21 (centres unmarked)
Reply: Yes

Ask: Regarding Cc1nc(N2CCNCC2)ncc1C(=O)N1CC2CC(O)C(O)CC2C1 (centres unmarked) , kindly confirm whether its Titers of the bacterium is beneath 500 copies per reaction.
Reply: No

Ask: Field: below-cutoff. Rule: recorded Titers of the bacterium strictly less than 500 copies per reaction. Subject: O=C(CCc1cc2cc3c(-c4ccccc4)coc3cc2oc1=O)NCC(O)CO (centres unmarked)
Reply: No

Ask: Hi there! Is Titers of the bacterium for O=C(Cc1cc2c(oc1=O)C=CC1C(C3CCCC3)=COC21)NCC(O)CO (centres unmarked) below 500 copies per reaction, do you know?
Reply: No

Ask: # TODO verify Titers of the bacterium < 500 copies per reaction strictly for this molecule: Cc1c(CCC(=O)NCC(O)CO)c(=O)oc2cc3occ(-c4ccc5ccccc5c4)c3cc12 (centres unmarked)
Reply: No

Ask: Here's an entry: CC(O)C(O)CN1CCC(Oc2ccc(C(=O)N3CCC(c4ccccc4)C3)cc2)CC1 (centres unmarked) . Is its Titers of the bacterium below 500 copies per reaction?
Reply: No

Ask: Strictly below 500 copies per reaction: is that where Titers of the bacterium of O=C(c1ccc(OC2CCN(CC(O)CO)CC2)cc1)N1CCCC1 (centres unmarked) sits?
Reply: Yes
